Tested on: SB.msgc-1
Assay: AC50 for growth inhibition (viability) (log10 M); higher = less potent
Conditions: SB.msgc-1 (sporadic gastric cancer)
Property name: AC50 for growth inhibition (log10 M)
Output: the number by itself.

Cc1ccc(C(=O)Nc2cccc(C(F)(F)F)c2)cc1Nc1nc(-c2cccnc2)nc2c1cnn2C [NVP-BHG712] : -4.78
CN(C)C1=C(Br)C=C(C=C1)C\2NC3=C(\C4=C2C(=O)CC(C)(C)C4)C5=CC=CC=C5C=C3 (configuration not stated) [GLS968] : -5.23

Suppose we examine the compound CCN1CCN(c2ccc(Nc3cc(N(C)C(=O)Nc4c(Cl)c(OC)cc(OC)c4Cl)ncn3)cc2)CC1 [BGJ-398] ; what AC50 for growth inhibition (log10 M) value has been reported?
-4.73

Consider the compound shown here: C[C@H]1CC2C3CCC/4=C/C(=O)/C=C\[C@]4(C)[C@@]3(F)[C@@H](O)C[C@]2(C)[C@@]1(O)C(=O)CO (some centres not stated) [Betamethasone] What is its recorded AC50 for growth inhibition (log10 M)?
-4.88

Look up AC50 for growth inhibition (log10 M): COc1cc(N2CCC(N3CCN(C)CC3)CC2)ccc1Nc1ncnc(Nc2ccccc2[S+](=O)([O-])C(C)C)n1 [ASP-3026]
-4.88

Could you tell me which AC50 for growth inhibition (log10 M) is on file for CC(O)(C[S+](=O)([O-])c1ccc(F)cc1)C(=O)Nc1ccc(C#N)c(C(F)(F)F)c1 (configuration not stated) [Bicalutamide] ?
-5.98

# get_value(readout='AC50 for growth inhibition (log10 M)', item= COc1ccc2c(c1OC)C(=O)O[C@H]2[C@H]1c2c(cc3c(c2OC)OCO3)CCN1C [Noscapine] )
-6.63

* * *

System: SB.msgc-1
Assay: AC50 for growth inhibition (viability) (log10 M); higher = less potent
Conditions: SB.msgc-1 (sporadic gastric cancer)
In this section we review reported AC50 for growth inhibition (log10 M) values for a set of molecules.

Please review the entries below; each comes with its answer.
NC(=O)Nc1cc(-c2cccc(F)c2)sc1C(=O)N[C@H]1CCCNC1 : -6.73
CC1(C)CC(=O)c2c(C(F)(F)F)nn(-c3ccc(C(N)=O)c(NC4CCC(O)CC4)c3)c2C1 (centres undefined) : -7.43
c1ccc2c(Oc3nc(Nc4ccc(N5CCOCC5)cc4)c4ncn(C5CCCCC5)c4n3)cccc2c1 : -4.98
CC1(C)CC\C2=C(/O1)C3=C(C=CC=C3)C(=O)C2=O : -4.63
CCC[C@H](NC(=O)/C(C#N)=C/c1cccc(Br)n1)c1ccccc1 [Degrasyn] : -5.43
COc1cc(C(=O)N2CCC(N3CCN(C)CC3)CC2)ccc1Nc1ncc2c(n1)N(C)c1ccccc1C(=O)N2C : -4.83
N#Cc1c(C2CCNCC2)cc(-c2c(O)cccc2OCC2CC2)nc1N : -4.73
Cn1c(Nc2ccc(C(F)(F)F)cc2)nc2cc(Oc3ccnc(-c4nc(C(F)(F)F)c[nH]4)c3)ccc21 : -6.68
Cn1cc(-c2cnn3c(N)c(Br)c([C@H]4CCCNC4)nc23)cn1 : -6.83
CCOc1ccccc1N/N=C1/C(=O)N(c2nc(-c3ccccc3)cs2)N=C1C : -5.48

Next molecule, please.
Could you share which AC50 for growth inhibition (log10 M) value was measured for CC1(C)CCC(C)(C)c2cc(NC(=O)c3ccc(C(=O)O)cc3)ccc21 ?
-5.38

* * *

Test system: SB.msgc-1
Assay: area under the dose-response curve of % viability (trapezoidal, 11 doses) (% viability x log10 concentration); higher = less cytotoxic
Settings: SB.msgc-1 (sporadic gastric cancer)
Think of 500 as a floor: if area under the dose-response curve stands on it or above, it is criterion met; beneath it, criterion not met.

Observe how each entry below is paired with its result.
CC(C)c1onc(-c2c(Cl)cccc2Cl)c1COc1ccc(/C=C/c2cccc(C(=O)O)c2)c(Cl)c1 [GW-4064X] (top concentration 46.0829 µM) : criterion met
CN(C)C/C=C/C(=O)Nc1cc2c(Nc3ccc(F)c(Cl)c3)ncnc2cc1O[C@H]1CCOC1 [Afatinib] (top concentration 46.0829 µM) : criterion not met
CC(C)(O)CCc1ccc(OCc2cc(-c3cccc(OC(F)F)c3)c3ncccc3c2)cc1 (top concentration 46.0829 µM) : criterion met

For this compound, is measured area under the dose-response curve 500 or higher? CCCCC[C@H](O)/C=C/[C@H]1[C@H](O)CC(=O)[C@@H]1C/C=C\CCCC(=O)O [Prostaglandin E2] (top concentration 46.0829 µM)
criterion met

Reported area under the dose-response curve reaches at least 500 for CC1=C(C=CC=C1)N2\C(=N/C3=C(C(=CC=C3)C)C2=O)C[N]4N=CC5=C4N=CN=C5N [PIK-293] (top concentration 46.0829 µM) ?
criterion not met

Given O=C(CCCCCCC(=O)Nc1cccnc1)NO [Pyroxamide] (top concentration 46.0829 µM) , state whether its area under the dose-response curve is at least 500.
criterion not met

Determine whether measured area under the dose-response curve meets or exceeds 500 for CC1(C)CC(O)CC(C)(C)N1[O] [Tempol] (top concentration 46.0829 µM)
criterion met

Test whether the compound O=C1CCC[C@@H]2[C@H]3CCCN4CCC[C@@H](CN12)[C@@H]34 [Matrine] (top concentration 46.0829 µM) records area under the dose-response curve of 500 or higher.
criterion met

* * *

Measured viability, listed per entry.
Tested on: SB.msgc-1
Experiment: viability at highest tested concentration (MAXR) relative to DMSO; higher = less cytotoxic
Conditions: SB.msgc-1 (sporadic gastric cancer)
The reply should contain only the number, in %.

O=C(N[C@H](CO)[C@H](O)c1ccc([N+](=O)[O-])cc1)C(Cl)Cl [Chloramphenicol] (top concentration 46.0829 µM) : 111
OC1=C(C=CC=C1)C2=CC=C(C=C2)C3=CSC4=C3C(=C(/C#N)C(=O)N4)/O (top concentration 46.0829 µM) : 66.3

Need viability, item COc1cc2c(NC3CCN(C(C)C)CC3)nc(C3CCCCC3)nc2cc1OCCCN1CCCC1 [UNC-0638] (top concentration 46.0829 µM)
12.3

* * *

Tested on: SB.mhdgc-1
Assay: AC50 for growth inhibition (viability) (log10 M); higher = less potent
Details: SB.mhdgc-1 (hereditary c.1380delA CDH1 gastric cancer)
Structures can show the parent of a compound that is named as a salt.
Property name: AC50 for growth inhibition (log10 M)
Kindly provide the number alone.

Some compounds with recorded AC50 for growth inhibition (log10 M):
CN(C)Cc1c(C(=O)NCCOc2ccc(C(=O)NO)cc2)oc2ccccc12 : -5.13
CN(C)CCC=C1C2=C(C=CC=C2)\C=C/C3=C1C=CC=C3 [Cyclobenzaprine hydrochloride] : -4.78
COc1ccc([C@@H]2CNC(=O)C2)cc1OC1CCCC1 [S-(+)-Rolipram] : -5.58

Which AC50 for growth inhibition (log10 M) is reported with SB.mhdgc-1 for this entry: Cc1cc(OCCCc2c(C(=O)O)n(Cc3cccnc3)c3c(-c4c(COc5ccc(N6CCN([S+](C)(=O)[O-])CC6)cc5)nn(C)c4C)cccc23)cc(C)c1Cl ?
-4.73

* * *

Test system: SB.msgc-1
Assay: viability at highest tested concentration (MAXR) relative to DMSO; higher = less cytotoxic
Settings: SB.msgc-1 (sporadic gastric cancer)
Listing: viability of selected compounds
Numbers only here, please. The scale is %.

CC(C)Nc1cc(C(F)(F)F)cc2nc(NC(=O)c3cccnc3)nn12 [S-99] (top concentration 46.0829 µM) : 84
Oc1c(Cl)cc(Cl)c2cccnc12 [Chloroxine] (top concentration 46.0829 µM) : 22.7
CC[C@@H]([C@H](C)O)n1ncn(-c2ccc(N3CCN(c4ccc(OCC5CO[C@@](Cn6cncn6)(c6ccc(F)cc6F)C5)cc4)CC3)cc2)c1=O (stereo not given in full) [Posaconazole] (top concentration 46.0829 µM) : 25.3

Request the reported viability associated with N=C(N)Nc1ccc(C(=O)Oc2ccc3cc(C(=N)N)ccc3c2)cc1 [Nafamostat mesilate] (top concentration 46.0829 µM)
94.3

Recorded viability for CC[C@@H]1[C@@H](C)O[C@@](O)([C@@H](C)[C@H](O)[C@H](C)[C@H]2OC(=O)/C=C/C=C/[C@H](C)[C@@H]([C@@H](C)[C@@H](O)[C@H](C)[C@@]3(O)C[C@@H](O[C@H]4C[C@H](O)[C@H](O)[C@H](C)O4)[C@H](CC)[C@@H](C)O3)OC(=O)/C=C/C=C/[C@@H]2C)C[C@H]1O[C@H]1C[C@H](O)[C@H](O)[C@H](C)O1 [Azalomycin-B] (top concentration 46.0829 µM) , please?
2.09

* * *

Test system: SB.mhdgc-1
Test: viability at highest tested concentration (MAXR) relative to DMSO; higher = less cytotoxic
Conditions: SB.mhdgc-1 (hereditary c.1380delA CDH1 gastric cancer)
Property name: viability (%)
Give just the numeric value; % need not be written.

Worked cases, answers included:
CC(C)C[C@@H](C(=O)N[C@H](C(=O)OC1CCCC1)c1ccccc1)[C@H](O)C(=O)NO [Tosedostat] (top concentration 46.0829 µM) : 45.4
CN[C@@H]1[C@@H](O)[C@@H](O[C@@H]2[C@@H](O)[C@H](O[C@H]3O[C@H](CN)[C@@H](O)[C@H](O)[C@H]3O)[C@@H](N)C[C@H]2NC(=O)[C@@H](O)CN)OC[C@]1(C)O [Isepamicin] (top concentration 46.0829 µM) : 101
Cc1ccc(-c2cc(C(F)(F)F)nn2-c2ccc([S+](N)(=O)[O-])cc2)cc1 [Celecoxib] (top concentration 46.0829 µM) : 102
OC[C@H]1O[C@H](C[C@@H]1O)N2\C=C(\I)C(=O)NC2=O [Idoxuridine] (top concentration 46.0829 µM) : 115
O=C(O)c1cc(/N=N/c2ccc([S+](=O)([O-])Nc3ccccn3)cc2)ccc1O [Sulfasalazine] (top concentration 46.0829 µM) : 82.3

# input compound: CCNC(=O)Nc1ccc(-c2nc3c(c(N4CCOC[C@@H]4C)n2)CCN(C2COC2)C3)cc1 [GDC-0349] (top concentration 46.0829 µM) ; wanted: its viability
13.4

Requested read-out: viability. Entry: C/C=C(/C)C(=O)O[C@H]1C(C)=C2[C@H]([C@@H]1OC(=O)CCCCCCC)[C@@](C)(OC(C)=O)C[C@H](OC(=O)CCC)[C@@]1(O)[C@H]2OC(=O)[C@@]1(C)O [Thapsigargin] (top concentration 46.0829 µM)
2.37

# viability lookup, item Cc1ccccc1N1C(=O)c2cc([S+](N)(=O)[O-])c(Cl)cc2NC1C (stereo unspecified) [Metolazone] (top concentration 46.0829 µM)
97

// lookup viability for CN(Cc1cnc2nc(N)nc(N)c2n1)c1ccc(C(=O)N[C@@H](CCC(=O)O)C(=O)O)cc1 [Methotrexate] (top concentration 46.0829 µM)
61.7

Request the reported viability associated with COc1ccc(OC)c(-c2nnc3ccc(-c4ccc(OC)c(O[C@@H]5CCOC5)c4)nn23)c1 (top concentration 46.0829 µM)
4.95

I have this compound here, Cc1c(NC(=O)OC[C@@H]2COCCN2)cn2ncnc(Nc3ccc4c(cnn4Cc4cccc(F)c4)c3)c12 [AC-480] (top concentration 46.0829 µM) , and I need its recorded viability.
21.2
